- assay.system: T1, human TREM2 (human) (UniProt Q9NZC2)
- T1 sequence (looked up): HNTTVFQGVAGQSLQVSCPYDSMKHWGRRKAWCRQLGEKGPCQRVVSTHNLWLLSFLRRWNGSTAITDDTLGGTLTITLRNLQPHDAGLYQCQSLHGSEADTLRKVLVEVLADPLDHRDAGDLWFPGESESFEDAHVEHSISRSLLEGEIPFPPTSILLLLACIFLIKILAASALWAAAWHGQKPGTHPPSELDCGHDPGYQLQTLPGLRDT
- test.details: 2nd screen, 10 nM Ab
readout.label: Binding Signal (fold over 6E7 parental antibody) (fold)
Numbers only; they are read as fold.

| binder | uom | result |
| --- | --- | --- |
| 6E7 variant V37 (antibody, V domains shown) VH: EVQLVQSGAEVKKPGESLKISCKGSGYSHTSYWIAWVRQMPGKGLEWMGIIYPGDSDTRYSPSFAGQVTISADKSISTAYLQWSSLKASDTAMYFCARSRTFYYDSSDYFDYWGQGTLVTVSS VL: DIQMTQSPSSVSASVGDRVTITCRASQGISSWLAWYQQKPGKAPKLLIYAASSLQWGVPSRFSGSGSGTDFTLTISSLQPEDFATYFCQQADSYPRTFGQGTKLEIK | fold | 3.49 |

// next entry
Notebook: 6E7 variant V63 (antibody, V domains shown) VH: EVQLVQSGAEVKKPGESLKISCKGSGYSFRSYWIAWVRQMPGKGLEWMGIIYPGDSDTRYSPSFQGQVTISADKSISTAYLQWSSLKASDTAMYFCARSRTFYYDSSDYFDYWGQGTLVTVSS VL: DIQMTQSPSSVSASVGDRVTITCRASQGISSWLAWYQQKPGKAPKLLIYAASSLQRGVPSRFSGSGSGTDFTLTISSLQPEDFATYFCQQADRFPRTFGQGTKLEIK , Binding Signal (fold over 6E7 parental antibody) read as 3.71
